target: T1, gustducin α subunit (Rattus norvegicus, UniProt P29348); test: Trypsin protection assay of G protein α and γ subunit interaction; format: binding; conditions: in vitro translated γ and α subunits mixed 3:1, without β subunit
T1 construct: made in house; host or cells: cell-free in vitro transcription/translation (Promega TNT system)
T1 sequence (P29348 2-354 limits assumed): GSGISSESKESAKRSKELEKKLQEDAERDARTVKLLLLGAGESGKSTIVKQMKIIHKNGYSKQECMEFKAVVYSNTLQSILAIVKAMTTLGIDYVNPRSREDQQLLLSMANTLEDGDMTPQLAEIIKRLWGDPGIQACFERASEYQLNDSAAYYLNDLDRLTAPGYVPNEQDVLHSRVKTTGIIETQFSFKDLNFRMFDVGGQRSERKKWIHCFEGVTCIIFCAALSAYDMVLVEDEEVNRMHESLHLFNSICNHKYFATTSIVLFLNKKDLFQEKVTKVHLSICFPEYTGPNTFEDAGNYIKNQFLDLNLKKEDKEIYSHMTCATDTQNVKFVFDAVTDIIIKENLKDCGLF
measurement_label: protection of gustducin α subunit from tryptic digestion

molecule="cone γ8 subunit: the cone transducin α subunit partner (protein, ends and bridges not checked, the cone transducin α subunit partner) MAQDLSEKDLLKMEVEQLKKEVKNTRIPISKAGKEIKEYVEAQAGNDPFLKGIPEDKNPFKEKGGCLIS" result="unable to protect"
molecule="Gγ5: G protein γ5 subunit (protein) SGSSSVAAMKKVVQQLRLEAGLNRVKVSQAAADLKQFCLQNAQHDPLLTGVSSSTNPFRPQKVC" result="unable to protect"
